# HC50 at 1 h annotations
- method: Toxicity against new Zealand rabbit blood assessed as hemolysis after 60 mins
- Format: tissue-based, Oryctolagus cuniculus
- assay_context: read-out: HD50

So what's the measured HC50 at 1 h for this one? COC(=O)[C@@]1(C)CC[C@]2(C(=O)NCCCc3ccccc3)CC[C@]3(C)C(=CC[C@@H]4[C@@]5(C)C[C@H](O)[C@H](O[C@@H]6OC[C@@H](O[C@@H]7O[C@H](CO)[C@@H](O)[C@H](O)[C@H]7O)[C@H](O)[C@H]6O)[C@@](C)(CO)[C@@H]5CC[C@]43C)[C@@H]2C1
< 2.6 µM

So what's the measured HC50 at 1 h for this one? COC(=O)[C@@H](C)NC(=O)[C@]12CC[C@](C)(C(=O)OC)C[C@H]1C1=CC[C@@H]3[C@@]4(C)C[C@H](O)[C@H](O[C@@H]5OC[C@@H](O[C@@H]6O[C@H](CO)[C@@H](O)[C@H](O)[C@H]6O)[C@H](O)[C@H]5O)[C@@](C)(CO)[C@@H]4CC[C@@]3(C)[C@]1(C)CC2
> 274 µM

So what's the measured HC50 at 1 h for this one? COC(=O)[C@@]1(C)CC[C@]2(C(=O)N(C(=O)NC3CCCCC3)C3CCCCC3)CC[C@]3(C)C(=CC[C@@H]4[C@@]5(C)C[C@H](O)[C@H](O[C@@H]6OC[C@@H](O[C@@H]7O[C@H](CO)[C@@H](O)[C@H](O)[C@H]7O)[C@H](O)[C@H]6O)[C@@](C)(CO)[C@@H]5CC[C@]43C)[C@@H]2C1
< 2.4 µM

Now examine the next entry.
So what's the measured HC50 at 1 h for this one? COC(=O)[C@@]1(C)CC[C@]2(C(=O)NCCO)CC[C@]3(C)C(=CC[C@@H]4[C@@]5(C)C[C@H](O)[C@H](O[C@@H]6OC[C@@H](O[C@@H]7O[C@H](CO)[C@@H](O)[C@H](O)[C@H]7O)[C@H](O)[C@H]6O)[C@@](C)(CO)[C@@H]5CC[C@]43C)[C@@H]2C1
> 287 µM
